Overview of reported koff across a group of binders:
target: T1, Extracellular domain of human PD1 (huPD1-ECD) (human, UniProt Q15116 25-169, biotinylated in the ligand inhibition assay (sites not given)); test: SPR ProteOn, captured mAb, huPD1-ECD analyte;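 note: SPR on ProteOn XPR36, antibodies captured by anti-IgG Fc on a GLC chip, data fitted with a Langmuir 1:1 model to give on-rate, off-rate and equilibrium KD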
T1 construct: Expressed with a hexahistidine tag or as Fc fusion; also called biotinylated PD-1
T1 sequence (Q15116 25-169 limits assumed): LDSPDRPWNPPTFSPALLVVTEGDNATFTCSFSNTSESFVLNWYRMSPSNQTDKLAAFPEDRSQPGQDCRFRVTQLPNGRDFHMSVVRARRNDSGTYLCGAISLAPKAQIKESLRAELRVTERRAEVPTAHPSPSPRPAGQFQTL
Enter your answer as a number in s⁻¹; do not include the unit.

PD1B194 (antibody, V domains shown, also called PD1H170/PD1L71) VH: QVQLVQSGAEVKKPGSSVKVSCKASGGTFSSYAISWVRQAPGQGLEWMGGIIPIFDTANYAQKFQGRVTITADESTSTAYMELSSLRSEDTAVYYCARPGLAAAYDTGSLDYWGQGTLVTVSS VL: EIVLTQSPATLSLSPGERATLSCRASQSVRSYLAWYQQKPGQAPRLLIYDASYRATGIPARFSGSGSGTDFTLTISSLEPEDFAVYYCQQRDYWPLTFGQGTKVEIK; 0.00096
PD1B196 (antibody, V domains shown, also called PD1H170/PD1L148) VH: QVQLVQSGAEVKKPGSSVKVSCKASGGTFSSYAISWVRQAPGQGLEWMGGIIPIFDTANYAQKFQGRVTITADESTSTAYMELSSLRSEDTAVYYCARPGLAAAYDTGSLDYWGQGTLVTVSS VL: EIVLTQSPATLSLSPGERATLSCRASQSVRSYLAWYQQKPGQAPRLLIYDASNRATGIPARFSGSGSGTDFTLTISSLEPEDFAVYYCQQRNYWPLTFGQGTKVEIK; 0.000366

Let us move to another entry and its koff.
# input What koff value was documented for this binder, PD1B201 (antibody, V domains shown, also called PD1H164/PD1L190) VH: QVQLVQSGAEVKKPGSSVKVSCKASGGTFSDYVISWVRQAPGQGLEWMGGIIPIYGTANYAQKFQGRVTITADESTSTAYMELSSLRSEDTAVYYCARGTLDRTGHLDYWGQGTLVTVSS VL: EIVLTQSPATLSLSPGERATLSCRASQSVSNYLAWYQQKPGQAPRLLIYDASNRATGIPARFSGSGSGTDFTLTISSLEPEDFAVYYCQQRNYWPLTFGQGTKVEIK ?
# output 0.000957
